target: UniProtKB P56817; test: In vitro enzymatic BACE FRET assay; format: biochemical; conditions: beta secretase enzyme 0.2 nM, FRET substrate 50 nM, pH 4.2; read-out: BACE1 FRET assay (IC50 class)
property.measured: IC50

CCCC(=N)c1cccc(C)c1-c1ccc2nc(N)c(N3CCOCC3)cc2c1: 100 to 500 nM
COCC1CCN(C(=O)c2cccc(C)c2-c2ccc3nc(N)c(N4CCOCC4)cc3c2)CC1: 100 to 500 nM
CCOC1CCN(C(=O)c2cccc(C)c2-c2ccc3nc(N)c(N4CCOCC4)cc3c2)CC1: < 100 nM
Cc1cccc(C(=O)N2CCCC2C(C)C)c1-c1ccc2nc(N)c(N3CCOCC3)cc2c1 (centres unmarked): < 100 nM
Nc1nc2ccc(-c3ccccc3CC3CCOCC3)cc2cc1N1CCOCC1: 100 to 500 nM

-- ask Which measured IC50 value corresponds to Cc1cccc(Cc2ccccc2)c1-c1ccc2nc(N)c(N3CCOCC3)cc2c1 ?
-- reply < 100 nM

-- ask Which measured IC50 value corresponds to Cc1cccc(N2CCOCC2=O)c1-c1ccc2nc(N)c(N3CCOCC3)cc2c1 ?
-- reply 501 to 1000 nM

-- ask Which measured IC50 value corresponds to Cc1ccc(C(=O)c2cccc(C)c2-c2ccc3nc(N)c(N4CCOCC4)cc3c2)cc1 ?
-- reply < 100 nM

-- ask Which measured IC50 value corresponds to Nc1nc2ccc(-c3c(Cl)cccc3C(=O)N3CCCC3)cc2cc1N1CCOCC1 ?
-- reply < 100 nM

-- ask Which measured IC50 value corresponds to Cc1cccc(C(=O)N(C)Cc2cccc3ccccc23)c1-c1ccc2nc(N)c(N3CCOCC3)cc2c1 ?
-- reply 100 to 500 nM

-- ask Which measured IC50 value corresponds to Cc1cccc(C(=O)c2ncccc2Cl)c1-c1ccc2nc(N)c(N3CCOCC3)cc2c1 ?
-- reply < 100 nM

-- ask Which measured IC50 value corresponds to CC(C)(C)COc1ccccc1-c1ccc2nc(N)c(N3CCOCC3)cc2c1 ?
-- reply 501 to 1000 nM

-- ask Which measured IC50 value corresponds to Cc1cccc(C(=O)c2ccc(Cl)cc2)c1-c1ccc2nc(N)c(N3CCOCC3)cc2c1 ?
-- reply < 100 nM

* * *

target: BACE1 (Homo sapiens); experiment: In vitro enzymatic BACE FRET assay; type: biochemical; details: beta secretase enzyme 0.2 nM, FRET substrate 50 nM, pH 4.2; read-out: BACE1 FRET assay (IC50 class)
Sequence (P56817 46-501, species assumed): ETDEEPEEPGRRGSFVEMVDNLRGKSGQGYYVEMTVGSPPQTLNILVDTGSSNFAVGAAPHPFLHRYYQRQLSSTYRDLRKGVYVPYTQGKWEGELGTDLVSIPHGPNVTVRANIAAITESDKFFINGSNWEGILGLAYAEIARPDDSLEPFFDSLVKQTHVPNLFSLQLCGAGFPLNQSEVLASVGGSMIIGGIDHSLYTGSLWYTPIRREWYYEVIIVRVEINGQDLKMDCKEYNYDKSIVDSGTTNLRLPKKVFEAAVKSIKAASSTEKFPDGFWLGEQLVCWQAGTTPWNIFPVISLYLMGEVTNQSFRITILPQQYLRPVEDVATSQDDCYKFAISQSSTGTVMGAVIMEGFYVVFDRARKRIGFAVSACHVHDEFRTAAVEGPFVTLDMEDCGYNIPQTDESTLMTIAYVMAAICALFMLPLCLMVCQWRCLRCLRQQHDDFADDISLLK
pIC50: −log10 of the molar value.
Below, each entry is listed alongside its reported pIC50.

Worked examples follow.
Cc1cccc(C(=O)N2CCOCC2)c1-c1ccc2nc(N)c(N3CCOCC3)cc2c1 [Example 59]: 6.30 to 7.00
Nc1nc2ccc(-c3c(CCC4CCCCC4)cccc3C(=O)N3CCCC3)cc2cc1N1CCOCC1 [Example 168]: > 7.00
Cc1cccc(C(=O)N2C(C)CCCC2C)c1-c1ccc2nc(N)c(N3CCOCC3)cc2c1 (stereo not shown) [Example 124]: > 7.00

-- ask Which measured pIC50 value corresponds to CC(C)(C)C#Cc1ccccc1-c1ccc2nc(N)c(N3CCOCC3)cc2c1 [Example 160] ?
-- reply 6.00 to 6.30

-- ask Which measured pIC50 value corresponds to COCCC1CCCCN1C(=O)c1cccc(C)c1-c1ccc2nc(N)c(N3CCOCC3)cc2c1 (stereo not shown) [Example 83] ?
-- reply 6.30 to 7.00

-- ask Which measured pIC50 value corresponds to CCCCN(CC)C(=O)c1cccc(C)c1-c1ccc2nc(N)c(N3CCOCC3)cc2c1 [Example 118] ?
-- reply 6.00 to 6.30
